Record form. Attribute: pEC50. Fill in for each entry.
# MEASURED_ON: estrogen receptor (ER) (Homo sapiens, UniProt P03372)
# Construct: using the human breast carcinoma T47D.Luc cell line, stably transfected with pEREtataLuc construct
# ASSAY_EXPLANATION: ER-CALUX bioassay, estrogenic (ER-mediated) activity: induction of luciferase in T47D.Luc cells
A value of pEC50 is the negative decimal logarithm of a concentration given in moles per litre.

Request: Print estrogen receptor (ER) (Homo sapiens, UniProt P03372) pEC50 for Clc1ccc(-c2cc(Cl)c(Cl)cc2Cl)cc1 .
Result: 4.77

Request: System estrogen receptor (ER) (Homo sapiens, UniProt P03372). Read-out pEC50. Item Clc1ccc(Cl)c(-c2cc(Cl)ccc2Cl)c1 . Report value.
Result: 5.02

Request: Tell me its pEC50 on estrogen receptor (ER) (Homo sapiens, UniProt P03372): Clc1ccc(-c2ccc(Cl)cc2Cl)cc1
Result: 5.08

Request: State recorded pEC50 with estrogen receptor (ER) (Homo sapiens, UniProt P03372), entry Clc1ccc(-c2ccc(Cl)c(Cl)c2)c(Cl)c1 , no comment.
Result: 4.61

* * *

# MEASURED_ON: estrogen receptor (ER) (Homo sapiens, UniProt P03372)
# Construct: using the human breast carcinoma T47D.Luc cell line, stably transfected with pEREtataLuc construct; host or cells: T47D.Luc (human breast carcinoma, stably transfected with the pEREtataLuc reporter)
# ASSAY_EXPLANATION: ER-CALUX bioassay, antiestrogenicity: decrease in response to E2 in co-treated T47D.Luc cells
# Format: cell-based
# RUN_PARAMETERS: 3 pM E2, T47D.Luc cells; Figure 3
ASSAY_ENDPOINT: Effect on E2-induced luciferase activity (antiestrogenicity), in words

>>> endpoint_value("Clc1cc(Cl)c(-c2c(Cl)c(Cl)cc(Cl)c2Cl)c(Cl)c1Cl")
"significantly decreased"
>>> endpoint_value("Clc1cc(-c2cc(Cl)c(Cl)c(Cl)c2Cl)c(Cl)c(Cl)c1Cl")
"significantly decreased"
>>> endpoint_value("Clc1cc(Cl)c(-c2cc(Cl)c(Cl)c(Cl)c2Cl)cc1Cl")
"significantly decreased"
>>> endpoint_value("Clc1cc(Cl)c(-c2c(Cl)c(Cl)c(Cl)c(Cl)c2Cl)cc1Cl")
"significantly decreased"
>>> endpoint_value("Clc1ccc(-c2cc(Cl)c(Cl)c(Cl)c2Cl)c(Cl)c1Cl")
"significantly decreased"

Continue with the compound presented below.
Request: Report Effect on E2-induced luciferase activity (antiestrogenicity), in words for Clc1cc(Cl)c(-c2ccc(Cl)c(Cl)c2Cl)cc1Cl
Result: significantly decreased

* * *

# MEASURED_ON: estrogen receptor (ER) (Homo sapiens)
# Construct: using the human breast carcinoma T47D.Luc cell line, stably transfected with pEREtataLuc construct
# ASSAY_EXPLANATION: ER-CALUX bioassay, antiestrogenicity: decrease in response to E2 in co-treated T47D.Luc cells
// NB: equality with 10 µM counts as rule not met; only IC50 strictly below is rule met

Request: Bench note: check whether Clc1cc(Cl)c(-c2c(Cl)c(Cl)cc(Cl)c2Cl)c(Cl)c1Cl [PCB 199, 2,2′,3,3′,4′,5,6,6′-Octachlorobiphenyl] shows IC50 below 10 µM
Result: rule met

Request: Answer whether the compound Clc1cc(Cl)c(-c2cc(Cl)c(Cl)c(Cl)c2Cl)cc1Cl [PCB 180, 2,2′,3,4,4′,5,5′-Heptachlorobiphenyl] has IC50 strictly less than 10 µM
Result: rule met

Request: Hello, is IC50 of the following compound strictly smaller than 10 µM? Clc1ccc(-c2cc(Cl)c(Cl)c(Cl)c2Cl)c(Cl)c1Cl [PCB 170, 2,2′,3,3′,4,4′,5-Heptachlorobiphenyl]
Result: rule not met

Request: I'd appreciate it if you could check whether Clc1cc(Cl)c(-c2c(Cl)c(Cl)c(Cl)c(Cl)c2Cl)cc1Cl [PCB 203, 2,2′,3,4,4′,5,5′,6-Octachlorobiphenyl] has IC50 smaller than 10 µM.
Result: rule met

Request: Does this compound meet the criterion IC50 < 10 µM? Clc1cc(-c2cc(Cl)c(Cl)c(Cl)c2Cl)c(Cl)c(Cl)c1Cl [PCB 194, 2,2′,3,3′,4,4′,5,5′-Octachlorobiphenyl]
Result: rule not met

* * *

# Tested on: T47D.Luc cells
# ASSAY_EXPLANATION: Neutral red uptake cytotoxicity assay, 24-hr exposure
# Type: cell-based, human
# RUN_PARAMETERS: lowest concentration causing a significant decrease of cell viability; 24-hr exposure Neutral Red uptake
# Method: We determined estrogenic activities of 17 prevalent PCB congeners using the ER-CALUX bioassay (BioDetection Systems) using the human breast carcinoma T47D.Luc cell line, stably transfected with pEREtataLuc construct ([Legler et al. 1999]; [Machala et al. 2004]). ER-mediated activity was also determined in the cells treated with either total serum hexane/diethyl ether extracts or with a fraction of POPs obtained by a consequent sulfuric acid/silica fractionation. […]
ASSAY_ENDPOINT: Cytotoxicity LOEC (µM)
Entry rule: numbers only, all in µM.

Request: Give recorded Cytotoxicity LOEC. Clc1cc(-c2cc(Cl)c(Cl)c(Cl)c2Cl)c(Cl)c(Cl)c1Cl
Result: 25

Request: Provide only the value of recorded Cytotoxicity LOEC for Clc1cc(Cl)c(-c2ccc(Cl)c(Cl)c2Cl)cc1Cl
Result: 20

Request: Give reported Cytotoxicity LOEC value for Clc1cc(Cl)c(-c2cc(Cl)c(Cl)c(Cl)c2Cl)cc1Cl
Result: 20

Request: # return recorded Cytotoxicity LOEC for input Clc1cc(Cl)c(-c2c(Cl)c(Cl)cc(Cl)c2Cl)cc1Cl
Result: 20

Request: Return Cytotoxicity LOEC for the following molecule: Clc1ccc(-c2cc(Cl)c(Cl)c(Cl)c2Cl)cc1Cl
Result: 40

Request: Supply reported Cytotoxicity LOEC belonging to this molecule: Clc1cc(Cl)c(-c2cc(Cl)c(Cl)cc2Cl)cc1Cl
Result: 20

Request: Kindly indicate its recorded Cytotoxicity LOEC. Item: Clc1cc(Cl)c(-c2c(Cl)c(Cl)cc(Cl)c2Cl)c(Cl)c1Cl
Result: 20

Request: Give the measured Cytotoxicity LOEC for Clc1ccc(-c2cc(Cl)c(Cl)c(Cl)c2Cl)c(Cl)c1Cl
Result: 25

Request: Recall and state the measured Cytotoxicity LOEC for Clc1cc(Cl)c(-c2c(Cl)c(Cl)c(Cl)c(Cl)c2Cl)cc1Cl .
Result: 20

* * *

Provide the recorded Cytotoxicity LOEC for the entries that follow.
# System: T47D.Luc cells
# ASSAY_EXPLANATION: Neutral red uptake cytotoxicity assay, 24-hr exposure
# Format: cell-based, human
# RUN_PARAMETERS: lowest concentration causing a significant decrease of cell viability; 24-hr exposure Neutral Red uptake

Request: Read off the recorded Cytotoxicity LOEC for Clc1ccc(-c2ccc(Cl)cc2Cl)cc1 [PCB 28, 2,4,4′-Trichlorobiphenyl]
Result: > 20 µM

Request: Identify measured Cytotoxicity LOEC associated with Clc1ccc(-c2ccc(Cl)c(Cl)c2Cl)cc1Cl [PCB 105, 2,3,3′,4,4′-Pentachlorobiphenyl]
Result: > 40 µM

Request: // fetch Cytotoxicity LOEC given entry Clc1ccc(Cl)c(-c2cc(Cl)ccc2Cl)c1 [PCB 52, 2,2′,5,5′-Tetrachlorobiphenyl]
Result: > 20 µM

Request: State its Cytotoxicity LOEC for this molecule: Clc1ccc(-c2cc(Cl)c(Cl)c(Cl)c2)cc1Cl [PCB 126, 3,3′,4,4′,5-Pentachlorobiphenyl]
Result: > 40 µM

Request: Give reported Cytotoxicity LOEC value for Clc1ccc(-c2cc(Cl)c(Cl)cc2Cl)cc1Cl [PCB 118, 2,3′,4,4′,5-Pentachlorobiphenyl]
Result: > 20 µM

Request: Specify Cytotoxicity LOEC for Clc1ccc(-c2cc(Cl)c(Cl)cc2Cl)c(Cl)c1 [PCB 99, 2,2′,4,4′,5-Pentachlorobiphenyl] and stop.
Result: > 40 µM

Request: Find the measured Cytotoxicity LOEC of Clc1ccc(-c2cc(Cl)c(Cl)cc2Cl)cc1 [PCB 74, 2,4,4′,5-Tetrachlorobiphenyl] and report it.
Result: > 40 µM

Request: Dear colleague, please send me the reported Cytotoxicity LOEC for Clc1ccc(-c2ccc(Cl)c(Cl)c2)c(Cl)c1 [PCB 66, 2,3′,4,4′-Tetrachlorobiphenyl] when you can.
Result: > 40 µM
